STUDY TARGET: T1, Native human IL-18 (human, UniProt Q14116 37-193)
T1 sequence: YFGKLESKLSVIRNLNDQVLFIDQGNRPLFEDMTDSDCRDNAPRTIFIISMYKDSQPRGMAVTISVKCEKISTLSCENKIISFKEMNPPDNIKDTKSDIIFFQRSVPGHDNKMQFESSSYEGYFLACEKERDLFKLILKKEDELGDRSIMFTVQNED
PROTOCOL: cell-based or functional assay
MEASUREMENT NAME: IC50, inhibition of IFN-γ release, PBMC, Native IL-18 (LPS/IL-12) (pM)
Please reply with the bare figure in pM and do not write the unit itself.

(Q) Return value of IC50, inhibition of IFN-γ release, PBMC, Native IL-18 (LPS/IL-12) for input MOR09465 (antibody, human IgG1, lambda, L234A L235A, V domains shown, also called MOR9465) VH: EVQLVQSGAEVKKPGSSVKVSCKASGGTFNSYAISWVRQAPGQGLEWMGNIIPHYGFAYYAQKFQGRVTITADESTSTAYMELSSLRSEDTAVYYCARAAYHPLVFDNWGQGTLVTVSS VL: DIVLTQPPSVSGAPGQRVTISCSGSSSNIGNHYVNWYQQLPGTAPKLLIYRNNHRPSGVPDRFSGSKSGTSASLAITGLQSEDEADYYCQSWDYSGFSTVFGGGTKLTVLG , no commentary.
(A) 890

(Q) Return value of IC50, inhibition of IFN-γ release, PBMC, Native IL-18 (LPS/IL-12) for input MOR9464_N30K (antibody, human IgG1, lambda, L234A L235A, V domains shown, also called MOR09464_N30K) VH: EVQLVQSGAEVKKPGSSVKVSCKASGGTFKSYAISWVRQAPGQGLEWMGNIIPMTGQTYYAQKFQGRVTITADESTSTAYMELSSLRSEDTAVYYCARAAYHPLVFDNWGQGTLVTVSS VL: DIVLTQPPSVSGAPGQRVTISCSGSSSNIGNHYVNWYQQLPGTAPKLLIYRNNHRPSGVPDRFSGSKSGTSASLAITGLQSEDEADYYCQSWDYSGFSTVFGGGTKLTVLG , no commentary.
(A) 200

(Q) Return value of IC50, inhibition of IFN-γ release, PBMC, Native IL-18 (LPS/IL-12) for input MOR09464 (antibody, human IgG1, lambda, L234A L235A, V domains shown, also called MOR9464) VH: EVQLVQSGAEVKKPGSSVKVSCKASGGTFNSYAISWVRQAPGQGLEWMGNIIPMTGQTYYAQKFQGRVTITADESTSTAYMELSSLRSEDTAVYYCARAAYHPLVFDNWGQGTLVTVSS VL: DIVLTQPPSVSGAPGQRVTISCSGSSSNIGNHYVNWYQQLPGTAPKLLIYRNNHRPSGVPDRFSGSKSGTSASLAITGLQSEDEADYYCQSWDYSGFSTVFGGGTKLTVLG , no commentary.
(A) 200
